Data provenance is patent US20240116985A1.

biological target: full-length beta-Catenin (Uniprot ID P35222) (Homo sapiens, UniProt P35222); construct: 10 nM full-length beta-Catenin (Uniprot ID P35222); assay: Fluorescence polarization IC50 (beta-catenin / 5FAM-TCF4 10-53 competition); format: binding; settings: fluorescence polarization; read-out: beta-Catenin FP IC50
Sequence (P35222 whole entry): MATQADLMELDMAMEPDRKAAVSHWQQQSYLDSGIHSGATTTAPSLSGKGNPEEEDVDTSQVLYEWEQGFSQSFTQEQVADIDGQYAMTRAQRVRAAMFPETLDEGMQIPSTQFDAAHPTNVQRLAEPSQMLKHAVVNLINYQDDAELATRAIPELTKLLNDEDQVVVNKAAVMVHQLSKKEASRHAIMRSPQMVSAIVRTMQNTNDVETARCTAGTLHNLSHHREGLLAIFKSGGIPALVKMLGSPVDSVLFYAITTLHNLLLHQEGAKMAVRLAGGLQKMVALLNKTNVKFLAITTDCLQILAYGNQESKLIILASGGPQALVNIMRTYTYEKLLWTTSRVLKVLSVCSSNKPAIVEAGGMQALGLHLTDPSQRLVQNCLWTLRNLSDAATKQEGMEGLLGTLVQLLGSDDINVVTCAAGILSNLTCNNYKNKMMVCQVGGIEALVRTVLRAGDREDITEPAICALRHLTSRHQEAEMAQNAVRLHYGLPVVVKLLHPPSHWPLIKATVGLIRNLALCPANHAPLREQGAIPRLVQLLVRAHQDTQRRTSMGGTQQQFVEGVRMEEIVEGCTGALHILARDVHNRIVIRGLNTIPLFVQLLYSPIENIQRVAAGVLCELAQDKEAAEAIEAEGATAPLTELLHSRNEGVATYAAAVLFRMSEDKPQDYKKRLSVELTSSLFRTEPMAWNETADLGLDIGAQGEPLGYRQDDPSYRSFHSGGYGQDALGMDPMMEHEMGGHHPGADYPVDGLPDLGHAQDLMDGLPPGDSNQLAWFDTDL
pIC50: −log10 of the molar value.

COMPOUND	pIC50
CC(=O)N1CCC[C@]12CC=CCCCC1(CCCC=CCCCOC(=O)N3CC[C@@](C(=O)N[C@@H](Cc4ccccc4C(F)(F)F)C(=O)N[C@@H](Cc4csc5ccccc45)C(=O)N[C@@H](CCC(N)=O)C(=O)N[C@@H](C)C(=O)N[C@@H](C)C(N)=O)(C3)NC(=O)[C@H](CC(C)C)NC(=O)[C@H](Cc3ccccc3)NC(=O)[C@H](C)NC(=O)[C@H](C)NC(=O)[C@H](Cc3cccc(C(=O)O)c3)NC(=O)[C@H](CC(=O)O)NC1=O)NC(=O)[C@H](CC(C)(C)C)NC(=O)[C@H](CC(=O)O)NC2=O (stereo partly shown)	7.77
